Tested on: DNA aptamer or structured DNA CTTACGACAAAGGCTCGGGCTCCCATGATGGATTCGTTGTCGTAAG
stated-conditions: 10 mM Tris-HCl, pH 7.4
reported-metric: Kd (nM)
Answers are plain numbers, in nM.

// lookup Kd for COC(=O)[C@@H]1C2CCC(C[C@@H]1OC(=O)c1ccccc1)N2C (stereo partly specified)
285

###

Test system: DNA aptamer or structured DNA GGGACGACGCGCATGTGGTGTCGGTCAGATGGGATGAAGTCGTCCC
stated-conditions: 10 mM Tris-HCl, pH 7.4
reported-metric: binding call; note: call rule not given here

Recorded results for 5 molecules are shown here.
>  <record-smiles>
CN1C(=O)CN=C(c2ccccc2)c2cc(Cl)ccc21

>  <binding call>
binds

$$$$
>  <record-smiles>
CN[C@@H](C)Cc1ccccc1

>  <binding call>
no binding

$$$$
>  <record-smiles>
Cn1c(=O)c2c(ncn2C)n(C)c1=O

>  <binding call>
binds

$$$$
>  <record-smiles>
O=C1CN=C(c2ccccc2Cl)c2cc([N+](=O)[O-])ccc2N1

>  <binding call>
binds

$$$$
>  <record-smiles>
COc1ccc2c(c1OC)C(=O)O[C@@H]2[C@H]1c2c(cc3c(c2OC)OCO3)CCN1C

>  <binding call>
binds

$$$$

Provide binding call values for the following items, in order.
1. Cc1nnc2n1-c1ccc(Cl)cc1C(c1ccccc1)=NC2
2. c1ccc([C@H]2CN3CCSC3=N2)cc1

["binds", "no binding"]

###

Test system: DNA aptamer or structured DNA GGGACGACGAGGGGATCCATCCAATGGGGTTTGTATACGTCGTCCC
stated-conditions: 10 mM Tris-HCl, pH 7.4
reported-metric: pKd
Numbers only, as −log10 of the molar value.

// lookup pKd for `CN[C@@H](C)Cc1ccccc1`
5.30

###

Tested on: DNA aptamer or structured DNA GGGACGACCAGGATTCGGTTCTTTGTAAATAGTGCCTCGTTGGTCGTCCC
stated-conditions: 10 mM Tris-HCl, pH 7.4
reported-metric: Kd (nM)
Answers are plain numbers, in nM.

// lookup Kd for `CN1CC[C@]23c4c5ccc(O)c4O[C@H]2[C@@H](O)C=C[C@H]3[C@H]1C5`
1800

###

System: DNA aptamer or structured DNA CTTACGACTAGGTGGGGGTCGGCCATGGGAGTGGGGTAGTCGTAAG
stated-conditions: 10 mM Tris-HCl, pH 7.4
reported-metric: Kd (µM)
Answers are plain numbers, in µM.

// lookup Kd for COC(=O)[C@@H]1C2CCC(C[C@@H]1OC(=O)c1ccccc1)N2C (stereo partly specified)
0.27

###

Test system: DNA aptamer or structured DNA GGGACGACGGCTTGCATTGAGCAGAAGGGGTACACGCTGTCGTCCC
stated-conditions: 10 mM Tris-HCl, pH 7.4
reported-metric: Kd (nM)
Answers are plain numbers, in nM.

// lookup Kd for `COc1ccc2c3c1O[C@H]1C(=O)CC[C@@]4(O)[C@@H](C2)N(C)CC[C@]314`
790

###

Test system: DNA aptamer or structured DNA GGGACGACGGGACGGTAAGTGGCAGGTCGTTGGAATTTCTACTGTATCGTCGTCCC
stated-conditions: 10 mM Tris-HCl, pH 7.4
reported-metric: pKd
Numbers only, as −log10 of the molar value.

// lookup pKd for `CN[C@@H](C)Cc1ccccc1`
5.43

###

Test system: DNA aptamer or structured DNA GGGACGACAGTGGCGTTTATGGGTCGGGTGTGGGAAATGTCGTCCC
stated-conditions: 10 mM Tris-HCl, pH 7.4
reported-metric: binding call; note: call rule not given here

Recorded results for 5 compounds are shown here.
>  <compound>
O=C1CN=C(c2ccccc2Cl)c2cc([N+](=O)[O-])ccc2N1

>  <reported-metric>
binding call; note: call rule not given here

>  <reported-measurement>
no binding

$$$$
>  <compound>
CC(C)[C@H](NC(=O)c1nn(Cc2ccc(F)cc2)c2ccccc12)C(N)=O

>  <reported-metric>
binding call; note: call rule not given here

>  <reported-measurement>
no binding

$$$$
>  <compound>
CCC(=O)C(CC(C)N(C)C)(c1ccccc1)c1ccccc1 (stereo not drawn)

>  <reported-metric>
binding call; note: call rule not given here

>  <reported-measurement>
binds

$$$$
>  <compound>
COc1ccc2c3c1O[C@H]1C(=O)CC[C@@]4(O)[C@@H](C2)N(C)CC[C@]314

>  <reported-metric>
binding call; note: call rule not given here

>  <reported-measurement>
no binding

$$$$
>  <compound>
C=C[C@H]1CN2CC[C@@H]1C[C@H]2[C@H](O)c1ccnc2ccc(OC)cc12

>  <reported-metric>
binding call; note: call rule not given here

>  <reported-measurement>
binds

$$$$

Provide binding call values for the following items, in order.
1. CN(C)CCOC(c1ccccc1)c1ccccc1
2. CN[C@@H](C)Cc1ccccc1
3. COC(=O)[C@@H]1C2CCC(C[C@@H]1OC(=O)c1ccccc1)N2C (stereo partly drawn)
4. CCOC(=O)c1ccc(N)cc1
5. O=C1CC[C@@]2(O)[C@H]3Cc4ccc(O)c5c4[C@@]2(CCN3CC2CC2)[C@H]1O5
6. CC(N)Cc1ccccc1 (stereo not drawn)
7. O=C1Nc2ccc(Cl)cc2C(c2ccccc2Cl)=NC1O (stereo not drawn)
8. C=CCN1CC[C@]23c4c5ccc(O)c4O[C@H]2C(=O)CC[C@@]3(O)[C@H]1C5

binds
no binding
no binding
no binding
binds
no binding
no binding
binds

Provide binding call values for the following items, in order.
1. COC(=O)C(c1ccccc1)C1CCCCN1 (stereo not drawn)
2. CCNC(C)C(=O)c1ccc2c(c1)OCO2 (stereo not drawn)
3. CCN(CC)CCOC(=O)c1ccc(N)cc1
4. CC(=O)Oc1ccc2c3c1O[C@H]1[C@@H](OC(C)=O)C=C[C@H]4[C@@H](C2)N(C)CC[C@@]341
5. CN(C)CCCN1c2ccccc2CCc2ccc(Cl)cc21

binds
binds
binds
no binding
no binding

###

Tested on: DNA aptamer or structured DNA CTTACGACAAACTTTTGGGTATCTGGTTGGGAGGTTCTGTCGTAAG
stated-conditions: 10 mM Tris-HCl, pH 7.4
reported-metric: binding call; note: call rule not given here

Recorded results for 8 compounds are shown here.
>  <compound>
CNC(C)C(=O)c1ccc(C)cc1 (configuration not stated)

>  <reported-measurement>
no binding

$$$$
>  <compound>
CCCCCn1cc(C(=O)C2C(C)(C)C2(C)C)c2ccccc21

>  <reported-measurement>
no binding

$$$$
>  <compound>
CNC(C)Cc1ccc2c(c1)OCO2 (configuration not stated)

>  <reported-measurement>
binds

$$$$
>  <compound>
CCN(CC)CCOC(=O)c1ccc(N)cc1

>  <reported-measurement>
no binding

$$$$
>  <compound>
CCCCCc1cc(O)c2c(c1)OC(C)(C)[C@@H]1CCC(C)=C[C@@H]21

>  <reported-measurement>
no binding

$$$$
>  <compound>
NCCc1ccc(O)c(O)c1

>  <reported-measurement>
no binding

$$$$
>  <compound>
CN1CC[C@]23c4c5ccc(O)c4O[C@H]2[C@@H](O)C=C[C@H]3[C@H]1C5

>  <reported-measurement>
no binding

$$$$
>  <compound>
CNCCC(Oc1ccc(C(F)(F)F)cc1)c1ccccc1 (configuration not stated)

>  <reported-measurement>
no binding

$$$$

Provide binding call values for the following items, in order.
1. CN[C@@H](C)Cc1ccccc1
2. CN1C2CCC1[C@@H](C(=O)O)[C@@H](OC(=O)c1ccccc1)C2 (some centres not stated)
3. C=C[C@H]1CN2CC[C@@H]1C[C@H]2[C@H](O)c1ccnc2ccc(OC)cc12
4. CCCC(C(=O)c1ccc2c(c1)OCO2)N1CCCC1 (configuration not stated)

["no binding", "no binding", "binds", "binds"]

###

Tested on: DNA aptamer or structured DNA TTCAAATCTGAGCAGCCTAGTTACTGACGGGTTTATAGTACTCGCACTGAGTCTAGATTTGAA
stated-conditions: 10 mM Tris-HCl, pH 7.4
reported-metric: pKd
Numbers only, as −log10 of the molar value.

// lookup pKd for `CN[C@@H](C)Cc1ccccc1`
5.15

###

Tested on: DNA aptamer or structured DNA GGGACGACGGGGGGAGTAATGTTTGTGTGGGGGAGCCGGTCGTCCC
stated-conditions: 10 mM Tris-HCl, pH 7.4
reported-metric: Kd
Quote the value and follow it with the unit of measurement.

// lookup Kd for `COc1ccc2c3c1O[C@H]1C(=O)CC[C@@]4(O)[C@@H](C2)N(C)CC[C@]314`
1190 nM

###

System: DNA aptamer or structured DNA CTTACGACAGGTTCTGAGGAATCAACGTCGGTGTAGTTGTCGTAAG
stated-conditions: 10 mM Tris-HCl, pH 7.4
reported-metric: Kd (nM)
Numbers only, in nM.

// lookup Kd for COC(=O)[C@@H]1C2CCC(C[C@@H]1OC(=O)c1ccccc1)N2C (stereo partly specified)
22

###

Tested on: DNA aptamer or structured DNA GGGACGACGGGGATTCGGTTCGTCATTTGGCAGTGCCTCGTACGTCGTCCC
stated-conditions: 10 mM Tris-HCl, pH 7.4
reported-metric: binding call; note: call rule not given here

Recorded results for 6 compounds are shown here.
>  <compound>
CN1CC[C@]23c4c5ccc(O[C@@H]6O[C@H](C(=O)O)[C@@H](O)[C@H](O)[C@H]6O)c4O[C@H]2[C@@H](O)C=C[C@H]3[C@H]1C5

>  <reported-measurement>
binds

$$$$
>  <compound>
CCN(CC)CC(=O)Nc1c(C)cccc1C

>  <reported-measurement>
no binding

$$$$
>  <compound>
NCC(O)c1ccc(O)c(O)c1 (configuration not stated)

>  <reported-measurement>
no binding

$$$$
>  <compound>
CN1CC[C@]23c4c5ccc(O)c4O[C@H]2[C@@H](O[C@@H]2O[C@H](C(=O)O)[C@@H](O)[C@H](O)[C@H]2O)C=C[C@H]3[C@H]1C5

>  <reported-measurement>
binds

$$$$
>  <compound>
CCN(CC)CCOC(=O)c1ccc(N)cc1

>  <reported-measurement>
no binding

$$$$
>  <compound>
Oc1ccc2c3c1OC1C(O)C=CC4C(C2)NCCC341 (configuration not stated)

>  <reported-measurement>
binds

$$$$

Now, please, on to the next compound.
Lookup: binding call / DNA aptamer or structured DNA GGGACGACGGGGATTCGGTTCGTCATTTGGCAGTGCCTCGTACGTCGTCCC / `NCCc1ccc(O)c(O)c1`
no binding
